- experimental.details: AUC in rat at 1 mg/kg, iv
- Type: ADME, organism-based
- Set-up: dose 1 mg/kg, route intravenous
- reported.conditions: plasma
readout.label: AUC (ng·h/mL)
Give the value in ng·h/mL but do not write ng·h/mL after it.

Return reported AUC; argument: CCOC(=O)N1CCC(N2CCC[C@@H](NC(=O)c3ccccc3C)C2)CC1
1100
